tested.target: amyloid (aggregated Aβ1-40) (Homo sapiens, UniProt P05067)
Sequence (P05067 672-711 limits assumed): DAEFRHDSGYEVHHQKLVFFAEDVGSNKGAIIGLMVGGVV
measurement.description: in vitro amyloid binding test (inhibition of [125I]3′-I-BTA-0 binding)
study.conditions: [125I]3′-I-BTA-0 400 pmol/L, amyloid 1 μmol/L, 0.1% BSA phosphate buffer pH 7.4, 22°C, 3 hours
The entries below come with measured IC50 values attached.
measured.endpoint: IC50

INSERT INTO measurements (molecule, result) VALUES
  ('Oc1ccc2nc(-c3ccc(OCCCF)cc3)cn2c1', '30.5 nM'),
  ('FCCCOc1ccc(-c2cn3ccccc3n2)cc1', '36.6 nM'),
  ('Nc1c(/N=N/c2ccc(-c3ccc(/N=N/c4cc(S(=O)(=O)O)c5ccccc5c4N)cc3)cc2)cc(S(=O)(=O)O)c2ccccc12 [Congo Red, reference compound]', '> 1000 nM'),
  ('COc1ccc2nc(-c3ccc(OCCCF)cc3)cn2c1', '1.1 nM');

Value source: patent US8277777B2
